System: U251 (Low Grade Glioma)
Assay: combination Emax (second highest fraction inhibited in the dose matrix, 72 h); higher = more inhibition; extreme values may be limits of the assay
metric: combination Emax
Give the figure only, with no unit attached.

For the compound COc1cc2ncnc(Nc3ccc(F)c(Cl)c3)c2cc1OCCCN1CCOCC1 [Gefitinib] + CC(C)n1c(=O)n(C)c2cnc3cc(F)c(-c4ccc(OCCCN5CCCCC5)nc4)cc3c21 [AZD1390] (first compound max 10 µM, 7x7, partner max 0.3 µM) , what combination Emax is on record?
0.0432

Now this one: Cc1c2c(nn1C)CSCc1cc(n(C)n1)CSc1cc(c3ccccc3c1)OCCCc1c(C(=O)O)n(C)c3c-2c(Cl)ccc13 [AZD5991] + C=CCn1c(=O)c2cnc(Nc3ccc(N4CCN(C)CC4)cc3)nc2n1-c1cccc(C(C)(C)O)n1 [AZD1775] (first compound max 1 µM, partner max 1 µM)
0.423

Consider next the compound Cc1c2c(nn1C)CSCc1cc(n(C)n1)CSc1cc(c3ccccc3c1)OCCCc1c(C(=O)O)n(C)c3c-2c(Cl)ccc13 [AZD5991] + C1CN(CCC1(C(=O)N[C@@H](CCO)C2=CC=C(C=C2)Cl)N)C3=NC=NC4=C3C=CN4 [Capivasertib] (first compound max 1 µM, 7x7, partner max 3 µM) in the same way.
0.224

Next entry: CS(=O)(=O)CCNCc1ccc(-c2ccc3ncnc(Nc4ccc(OCc5cccc(F)c5)c(Cl)c4)c3c2)o1 [Lapatinib] + C[C@@H](Oc1cc(-c2cnn(C3CCNCC3)c2)cnc1N)c1c(Cl)ccc(F)c1Cl [Crizotinib] (first compound max 10 µM, 7x7, partner max 10 µM)
0.785
